Reported GI50 values for the following compounds.
# Test system: NCI-H460
# EXPERIMENT_NOTES: Growth inhibition of human NCI-H460 cells after 48 hrs by SRB assay
# Assay type: functional
# EXPERIMENTAL_CONTEXT: NCI-H460, 48 h
PROPERTY_LABEL: GI50

1. COc1ccc(C(=O)N2c3ccccc3Sc3ccccc32)c(C(F)(F)F)c1	383 nM
2. COc1ccc(C(=O)N2c3ccccc3Sc3ccccc32)cc1F	340 nM
3. O=C(c1ccc2c(c1)Sc1ccccc1N2)c1c[nH]c2ccccc12	347 nM
4. COc1ccc(C(=O)N2c3ccccc3Sc3ccccc32)c(OC)c1	406 nM
5. COc1ccc(C(=O)N2c3ccccc3Sc3ccccc32)c(F)c1	485 nM
